# TARGET ENTITY: T1, biotinylated recombinant human IL-12Rβ2 (human, UniProt Q99665 24-622, random biotinylated)
# T1 construct: Recombinant protein produced in-house; also called hIL-12RB2; human IL-12RB2
# T1 sequence: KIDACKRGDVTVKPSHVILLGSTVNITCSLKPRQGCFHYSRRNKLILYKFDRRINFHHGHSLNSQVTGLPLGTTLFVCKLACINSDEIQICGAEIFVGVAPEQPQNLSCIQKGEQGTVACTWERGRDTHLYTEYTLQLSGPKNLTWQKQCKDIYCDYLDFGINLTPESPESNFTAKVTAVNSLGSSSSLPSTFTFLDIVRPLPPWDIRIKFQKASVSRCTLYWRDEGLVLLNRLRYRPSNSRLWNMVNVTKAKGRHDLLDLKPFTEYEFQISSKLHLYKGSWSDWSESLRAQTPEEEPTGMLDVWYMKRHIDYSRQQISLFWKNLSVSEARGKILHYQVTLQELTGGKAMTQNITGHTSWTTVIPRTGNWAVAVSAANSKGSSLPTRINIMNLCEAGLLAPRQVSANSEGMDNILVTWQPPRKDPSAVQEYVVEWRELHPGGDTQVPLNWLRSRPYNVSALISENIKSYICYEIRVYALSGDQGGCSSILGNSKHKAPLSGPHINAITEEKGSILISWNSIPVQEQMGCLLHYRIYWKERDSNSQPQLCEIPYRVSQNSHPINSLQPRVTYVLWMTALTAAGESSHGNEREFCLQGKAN
# METHOD: ELISA, P.E., biotinylated antigen
ASSAY ENDPOINT: ELISA hIL-12RB2/control
Answer with a number only.

| BINDER | ELISA hIL-12RB2/control |
| --- | --- |
| anti-IL-12Rβ2 VHH clone 3CRHS77 (clone ID 20425) (VHH, not shown: small tags and cut ends, periplasmic extract) VHH: QVQLQESGGGLVQAGGSLRLSCTASGHTFSSYTTIGWFRQAPGKEREFVAAIGWSGDITDYADAVKGRFTISRHNVENTVYLQMNSLNPEDTAVYYCARGYSEYGVLSRNRGLYAYWGQGTQVTVSS | 6.37 |
| anti-IL-12Rβ2 VHH clone 2CRH60 (clone ID 20367) (VHH, not shown: small tags and cut ends, periplasmic extract) VHH: QVQLQESGGGSVQPGGSLRLTCAASGFTFSTSGMHWFRQAPGKGLEWVSSISSGGGDTYYTDSVKGRITISRDNAKNTLYLQLNDLKSEDTAVYYCSKDPSGATRGQGTQVTVSS | 5.31 |
| anti-IL-12Rβ2 VHH clone 2CRH62 (clone ID 20368) (VHH, not shown: small tags and cut ends, periplasmic extract) VHH: QVQLQESGGGLVQPGGSLRLSCVESGRTFTVYDMGWFRQAPGKEREIVAAISADGATSIYQDSVKGRFTISRDNDAKNTVYLQMNSLKPEDTAVYYCAAGRSLIYNLYRANNTDYWGQGTQVTVSS | 3.51 |

Q: Form field: reported ELISA hIL-12RB2/control of anti-IL-12Rβ2 VHH clone 3CRHS156 (clone ID 20437) (VHH, not shown: small tags and cut ends, periplasmic extract) VHH: QVQLQESGGGLVQSGGSLRLSCVSSQTLVGIEAMGWYRQAPGKQRELVALITLNGGTFYADSVKGRFAISRDVAEHMLYLEMNSLNPEDTAVYFCVAGVESDNEEPTYWGQGTQVTVSS
A: 24.5

Values from patent US20260209362A1
